Give measured TGI for each item. Keep answers brief.
System: SNB-19 CNS
Test: NCI tumour cell line growth inhibition, 48 h

COc1ccccc1/C=C1\COc2ccc(-c3ccccc3)cc2C1=O	> 100 µM
CC(C)N(C(=O)c1cccc(C(=O)N(C(C)C)C(C)C)c1)C(C)C	> 100 µM
CCOC(=O)c1ccc(Nc2nc3ccccc3nc2-c2cccs2)cc1	> 100 µM
O=C(O)C(Cc1cnc[nH]1)N1C(=O)c2ccccc2C1=O (stereo not drawn)	> 100 µM
COc1ccc([C@H](CC(=O)O)N2CCN(CCCc3ccc4c(n3)NCCC4)C2=O)cn1	> 100 µM

Would you be so kind as to report TGI for each listed record?
1. COc1ccc(C#Cn2nnc3ccccc32)cc1
2. COc1cc2ccc(C(=O)NCCCNC(=O)c3ccc4cc(OC)c(OC)cc4c3)cc2cc1OC
3. C=C(C(=O)O[C@H]1C/C(C)=C/CC/C(CO)=C/[C@H]2C(=O)OC(=C)[C@H]12)C(O)CO (stereo partly drawn)
4. N#Cc1c(-c2ccc(Cl)cc2)cc(-c2ccc(Nc3ccnc4cc(Cl)ccc34)cc2)[nH]c1=O
5. O=c1cc(-c2ccccn2)[nH]c2cccc(F)c12
6. CCOC(=O)C1CC(C(=O)c2ccccc2)N2c3ccccc3-c3ccccc3C12 (stereo not drawn)

// result
["> 100 µM", "> 100 µM", "43.3 µM", "> 96.7 µM", "> 100 µM", "> 100 µM"]

Look up TGI for the entries below, preserving their order.
1. Cn1nc2ccc(Nc3cc(=O)[nH]c4ccc5nn(C)nc5c34)cc2n1
2. O=C(NNC(=S)Nc1ccccc1)c1nsc2ccccc12
3. CCC(=O)N1C/C(=C/c2ccc(Cl)cc2)C(=O)/C(=C/c2ccc(Cl)cc2)C1
4. c1nc(NCCc2cnc[nH]2)c2[nH]cnc2n1
5. COc1ccccc1OCC(COC(=O)Nc1ccccc1)OC(=O)Nc1ccccc1 (stereo not drawn)
6. CC1=CC2C(C(O)CC3(C)C2CC(C)C32OCOC23COCO3)C2(C)C/C(=C/O)C(=O)C=C12 (stereo not drawn)
7. CN(C)C(=O)Nc1nc2cc(Cl)c(Cl)cc2[nH]1

// result
> 100 µM
> 100 µM
2.45 µM
> 100 µM
> 100 µM
12 µM
> 100 µM

Parameter requested: TGI. Apply to each item below.
1. ClC(Cl)=C(Cl)C1(Cl)CC1COCc1ccccc1 (stereo not drawn)
2. Cc1ccc(S(=O)(=O)NC(CCC(=O)NNc2ccccc2)C(=O)NNc2ccccc2)cc1 (stereo not drawn)

// result
1: > 100 µM; 2: > 100 µM

###

Tested on: HOP-62 NSCLC
Experiment: NCI tumour cell line growth inhibition, 48 h
Would you kindly list TGI for each of these molecules?

For orientation, consider the following solved cases.
N#CC(CCN1CCC(Nc2ccccc2)(c2nnnn2C2CCCCC2)CC1)(c1ccccc1)c1ccccc1	> 100 µM
Cc1cn(C2CCC(CO)(CF)O2)c(=O)[nH]c1=O (centres undefined)	> 100 µM
O=[N+]([O-])c1ccc(NN=C2CN3CCN(C2)c2ccccc23)c([N+](=O)[O-])c1	> 100 µM
COC(=O)c1ccccc1C1CN=NC12Cc1c(ccc3c1CCC3)C2=O (centres undefined)	> 100 µM

Please look at the items below and tell me TGI for each one, in order.
1. CC(C(=O)OCc1ccccc1)N(Cc1ccccc1)Cc1ccccc1 (centres undefined)
2. O[C@@H]1C=C[C@]23CCN(Cc4cc5c(cc42)OCO5)[C@@H]3C1
3. CCOc1ccc2c(-c3ccnc(Nc4cc(OC)cc(C(F)(F)F)c4)n3)cnn2n1

// result
1. > 100 µM
2. > 100 µM
3. > 25 µM

###

Tested on: SF-539 CNS
Assay: NCI tumour cell line growth inhibition, 48 h
recordedEndpoint: TGI

CCOc1ccc2c(-c3ccnc(Nc4cc(OC)cc(C(F)(F)F)c4)n3)cnn2n1	> 14.7 µM

Value sought for every listed compound: TGI.
1. Nc1ccc(-c2nc3ccccc3s2)cc1Cl
2. C=CCn1c(=S)sc2c(C(=O)OCC)c3c(C)cc(C)cn3c2c1=O
3. Cc1ccc(S(=O)(=O)N2C[C@@H]3CC[C@]4(CO[Si](C)(C)C(C)(C)C)N[C@@H](c5ccccc5)[C@H]2[C@H]34)cc1

// result
> 100 µM
> 100 µM
> 100 µM

###

Test system: TK-10 renal
Assay: NCI tumour cell line growth inhibition, 48 h
I'd be grateful if you could share measured TGI for these entries.

Examples with their reported TGI follow.
O=S(=O)(O)O	2160 µM
COC(=O)c1cc(-c2ccccc2)[nH]c1N/N=C/c1c(Cl)cccc1Cl	2.4 µM
C/C(CC(=O)NCCc1ccccc1)=N\NS(=O)(=O)c1ccc(C)cc1	> 100 µM

Next:
// query What does the data say about its TGI? Entry: "CCOC(=O)N1C/C(=C\c2ccccc2)C(=O)/C(=C/c2ccccc2)C1"
// result 26.4 µM

###

Exercise: for every item that follows, state its recorded TGI.
System: SK-MEL-5 melanoma
Assay: NCI tumour cell line growth inhibition, 48 h
One number for each entry, in µM.

Cc1ccc(/C=C/c2c(C(=O)/C=C/c3ccccc3)c(C)nc3ccccc23)cc1	3.11
O=[N+]([O-])/C=C/c1c(Cl)cccc1Cl	8.78
O=c1c2cc(C(F)(F)F)ccc2sc2c(NCCCNCCO)nc3ccccc3c12	3.01
Nc1cc2c(c3ccccc13)C(CCl)CN2C(=O)c1cc2cc(NC(=O)Nc3ccc4[nH]c(C(=O)N5CC(CCl)c6c5cc(N)c5ccccc65)cc4c3)ccc2[nH]1 (stereo not given)	0.341
CC(=O)O[C@H]1CC[C@@]2(C)C(=CC[C@@H]3[C@@H]2CC[C@]2(C)C(=N/O)/C(=C\c4ccccc4)C[C@@H]32)C1	11.4

Please report TGI for every entry that follows.
1. CC1=NN(c2cccc(Cl)c2)C2(C1=Cc1ccc(O)cc1)C(Cl)C(=O)N2c1nc2ccccc2s1 (stereo not given)
2. COc1ccc(C(=O)Cn2c(C(=O)c3ccccc3)nc3ccccc32)cc1

// result
1: 39.8; 2: 6.06

###

Test system: RPMI-8226 leukemia
Experiment: NCI tumour cell line growth inhibition, 48 h
*1 amine or outer side, *2 acyl side, *3 side chain or, on linkers, in order; H or OH if unused. Where a SMILES comes first, the peptide text is derived from it. Bridges are numbered along the chain shown (N, C = ends). Roman numbers before positions name the chains, in order. [ ]: non-standard residue; d: D form. Actinocin(9to1) = Cc1c2oc3c(C)ccc(C(=O)[*:1])c3nc-2c(C(=O)[*:2])c(N)c1=O; NMeV = CN[CH](C(=O)O)C(C)C; Sar = CNCC(=O)O
recordedEndpoint: TGI

C[C@H](c1ccc(Cl)cc1[N+](=O)[O-])N1C(=O)c2cc(I)ccc2N=C(OCCCN2CCN(C)CC2)[C@@H]1c1ccc(Cl)cc1	6.5 µM
CNC(=O)NCC1OC(n2cnc3c(NC(=O)Nc4ccccc4)ncnc32)C(O[Si](C)(C)C(C)(C)C)C1O[Si](C)(C)C(C)(C)C (stereo not drawn)	> 100 µM
c1ccc(-c2nn3c(c2-c2ccnc4cc(OCCN5CCOCC5)ccc24)CCC3)nc1	> 100 µM
O=C(NNC(=S)Nc1ccccc1)c1nsc2ccccc12	> 100 µM
Cc1c2oc3c(C)ccc(C(=O)NC4C(=O)NC(Cc5ccccc5)C(=O)N5CCCC5C(=O)N(C)CC(=O)N(C)C(C(C)C)C(=O)OC4C)c3nc-2c(C(=O)NC2C(=O)NC(Cc3ccccc3)C(=O)N3CCCC3C(=O)N(C)CC(=O)N(C)C(C(C)C)C(=O)OC2C)c(N)c1=O (stereo not drawn) (I: TFP[Sar][NMeV] / II: TFP[Sar][NMeV]; ester I:1-I:C, II:1-II:C; linker I:N-II:N via Actinocin(9to1); configuration not given here)	> 100 µM
Cn1cnc(N)c(N=O)c1=O	> 10 µM
NC(Cc1ccc(OCc2ccccc2)cc1)C(=O)NC(Cc1ccccc1)C(=O)Oc1c(Cl)c(Cl)c(Cl)c(Cl)c1Cl (stereo not drawn)	> 100 µM
Cc1ccc(S(=O)(=O)NC(CCC(=O)NNc2ccccc2)C(=O)NNc2ccccc2)cc1 (stereo not drawn)	> 100 µM

For each of the items listed, what is its TGI?
1. CC1=NN(c2cccc(Cl)c2)C2(C1=Cc1ccc(O)cc1)C(Cl)C(=O)N2c1nc2ccccc2s1 (stereo not drawn)
2. O=C(Nc1sccc1S(=O)(=O)c1ccc(Cl)cc1)c1ccc(F)cc1F
3. Fc1ccc(-c2ncn(C3CCNCC3)c2-c2ccnc(Oc3ccc4c(c3)OCO4)n2)cc1
4. C#CC[C@@]12CC(=O)C[C@@H]1CCC1(C2)OCCO1 (tested in a mixture with another compound)
5. O=C(O)C[C@H](O)C[C@H](O)/C=C/c1c(C2CC2)nc2ccccc2c1-c1ccc(F)cc1
6. COC(=O)c1c2c(c(C)[n+]([O-])c1C)C(=O)C=C(NCc1ccccc1)C2=O
7. Cc1cn(C2CCC(CO)(CF)O2)c(=O)[nH]c1=O (stereo not drawn)
8. CCN1C/C(=C\c2ccc(Cl)cc2)c2nc(N)c(C#N)c(-c3ccc(Cl)cc3)c2C1

// result
["55.8 µM", "> 100 µM", "> 25 µM", "> 100 µM", "> 100 µM", "4.28 µM", "> 100 µM", "> 100 µM"]

Kindly give each listed record's TGI.
1. COC(=O)C1=C(OC(=O)/C(=C/c2ccccc2)c2ccc(OC)cc2)C(C(=O)OC)[C@@]2(O)[C@@H](C(=O)OC)[C@H](C)C[C@@H]1[C@@H]2C(=O)OC (stereo partly drawn)
2. O=c1cc(-c2ccccn2)[nH]c2cccc(F)c12
3. C/C(CC(=O)NCCc1ccccc1)=N\NS(=O)(=O)c1ccc(C)cc1
4. COC(C/C(=C/CO[Si](C(C)C)(C(C)C)C(C)C)C(=O)N(COCC[Si](C)(C)C)c1ccccc1I)OC
5. COc1cc2c(cc1OC)-c1ncc3c(OC)ccc(OC)c3c1C2
6. COC(=O)c1cc(-c2ccccc2)[nH]c1N/N=C/c1c(Cl)cccc1Cl
7. CCn1c(=O)c2nc(SC)sc2n(-c2ccc(C)cc2)c1=O

// result
1: > 100 µM; 2: > 100 µM; 3: > 100 µM; 4: > 100 µM; 5: 78.2 µM; 6: 0.753 µM; 7: > 100 µM
